- tested target: EGFR L858R (Homo sapiens (Human), UniProt P00533, L858R)
- Sequence (P00533 25-1210 L858R): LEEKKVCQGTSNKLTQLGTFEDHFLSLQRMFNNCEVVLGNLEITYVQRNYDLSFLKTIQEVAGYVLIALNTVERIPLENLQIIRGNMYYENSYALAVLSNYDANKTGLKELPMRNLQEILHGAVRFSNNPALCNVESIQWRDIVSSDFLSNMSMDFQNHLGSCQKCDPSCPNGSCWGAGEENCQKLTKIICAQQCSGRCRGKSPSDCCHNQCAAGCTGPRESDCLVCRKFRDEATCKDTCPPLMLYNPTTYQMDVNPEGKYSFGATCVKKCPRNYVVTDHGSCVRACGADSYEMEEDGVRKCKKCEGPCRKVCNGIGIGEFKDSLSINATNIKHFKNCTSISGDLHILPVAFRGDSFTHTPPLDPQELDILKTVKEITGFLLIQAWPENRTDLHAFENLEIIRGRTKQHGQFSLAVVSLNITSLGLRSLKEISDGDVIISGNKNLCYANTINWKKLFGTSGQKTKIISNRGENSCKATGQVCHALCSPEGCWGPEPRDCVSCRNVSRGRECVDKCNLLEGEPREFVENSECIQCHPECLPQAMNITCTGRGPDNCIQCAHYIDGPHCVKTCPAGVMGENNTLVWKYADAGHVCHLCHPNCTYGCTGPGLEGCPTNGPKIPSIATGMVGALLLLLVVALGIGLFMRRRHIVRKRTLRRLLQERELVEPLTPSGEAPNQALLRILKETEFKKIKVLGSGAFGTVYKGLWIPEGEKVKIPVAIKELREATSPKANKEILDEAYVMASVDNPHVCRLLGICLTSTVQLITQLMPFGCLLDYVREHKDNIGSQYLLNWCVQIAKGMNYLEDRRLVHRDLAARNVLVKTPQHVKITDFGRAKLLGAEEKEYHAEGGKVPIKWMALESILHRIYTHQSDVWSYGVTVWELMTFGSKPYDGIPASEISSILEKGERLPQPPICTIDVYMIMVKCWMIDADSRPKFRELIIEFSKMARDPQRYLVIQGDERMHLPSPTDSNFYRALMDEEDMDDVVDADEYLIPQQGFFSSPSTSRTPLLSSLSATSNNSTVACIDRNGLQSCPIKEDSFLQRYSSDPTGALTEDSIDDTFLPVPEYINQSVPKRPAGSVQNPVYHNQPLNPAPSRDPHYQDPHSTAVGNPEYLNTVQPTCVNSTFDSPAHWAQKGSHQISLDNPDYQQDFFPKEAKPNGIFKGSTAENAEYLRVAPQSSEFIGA
- experimental details: Biochemical EGFR inhibition assay, EGFR L858R
- cond: Caliper mobility shift; 1.0 mM ATP or ATP Km; read-out: Enz EGFR_L858R IC50
pIC50: −log10 of the molar value.
If the reported pIC50 equals or exceeds 8, assign condition met. If not, assign condition not met.

Task item: Does pIC50 meet or surpass 8 for `CN1CC[C@@H](Oc2cc3c(-c4cn(C)nc4-c4ccccc4)ncnc3cc2OC(F)F)[C@H](F)C1` ?
Reply: condition not met

Task item: Please do the same for `COc1cc2ncnc(-c3cn(C)nc3-c3ccccc3)c2cc1O[C@H]1CN(C)C[C@H]1F` as well.
Reply: condition met

Task item: Follow-up entry: `COc1cc2ncnc(-c3cn(C)nc3-c3ccccc3)c2nc1OC(=O)N1CCOC[C@H]1C`
Reply: condition met

Task item: Next: COc1cc2ncnc(-c3cn(C)nc3-c3ccccc3)c2nc1OC(C)c1nnc(C)o1 (centres unmarked)
Reply: condition met

---

- tested target: EGFR (d746-750) (Homo sapiens (Human), UniProt P00533, DEL746-750)
- Sequence (P00533 other isoform, or with tags, fused parts or gaps del 1-694/del 746-750 limits assumed): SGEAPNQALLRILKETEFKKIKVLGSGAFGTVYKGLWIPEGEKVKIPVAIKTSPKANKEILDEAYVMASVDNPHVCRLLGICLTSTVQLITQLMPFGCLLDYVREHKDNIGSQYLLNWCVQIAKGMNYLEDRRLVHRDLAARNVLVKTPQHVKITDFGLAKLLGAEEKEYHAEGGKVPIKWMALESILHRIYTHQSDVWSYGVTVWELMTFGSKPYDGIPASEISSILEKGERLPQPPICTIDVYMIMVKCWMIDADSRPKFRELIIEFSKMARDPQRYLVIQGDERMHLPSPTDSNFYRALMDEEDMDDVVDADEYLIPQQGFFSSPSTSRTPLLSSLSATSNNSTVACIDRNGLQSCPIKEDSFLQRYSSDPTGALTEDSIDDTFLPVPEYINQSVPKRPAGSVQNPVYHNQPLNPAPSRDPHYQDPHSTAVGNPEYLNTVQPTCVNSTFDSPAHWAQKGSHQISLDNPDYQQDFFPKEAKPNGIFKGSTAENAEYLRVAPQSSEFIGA
- experimental details: Biochemical EGFR inhibition assay, EGFR (d746-750)
- cond: Caliper mobility shift; 1.0 mM ATP or ATP Km; read-out: Enz EGFR_Exon19-del746-750 IC50
// classify: if (IC50 < 1 nM) true (1) else false (0)

Task item: Is the reported IC50 for `CN(C)CCOc1cc2ncnc(-c3cn(C)nc3-c3ccccc3)c2cc1NC(=O)C12CC(C1)C2` strictly below 1 nM?
Reply: false (0)

Task item: Another compound to look at: Cc1nnc([C@@H](C)Oc2nc3c(-c4cn(C)nc4-c4ccccc4)ncnc3cc2OC2CC2)o1 (single isomer, unassigned)
Reply: false (0)

Task item: // repeat for `COc1cc2ncnc(-c3cn(C)nc3-c3ccccc3)c2cc1NC(=O)c1cnn(CC(F)(F)F)c1` and report
Reply: false (0)

Task item: Follow-up entry: CCn1cc(-c2ncnc3cc(OC)c([C@@H](C)O)cc23)c(-c2ccccc2)n1 (single isomer, unassigned)
Reply: false (0)

Task item: Same read-out for `COc1cc2ncnc(-c3cn(CC(F)F)nc3-c3ccccc3)c2cc1OC(=O)N1CCOC[C@@H]1C` ?
Reply: true (1)

Task item: Now this one: `COc1cc2ncnc(-c3cn(C)nc3-c3ccccc3)c2cc1O[C@@H](C)C1COC1`
Reply: false (0)

Task item: // query: `COc1cc2ncnc(-c3cn(C)nc3-c3ccccc3)c2cc1NC(=O)c1cccc(C)n1`
Reply: true (1)

---

- tested target: pEGFR (Tyr1068) in PC-9 cells (Ex19Del) (Homo sapiens (Human), UniProt P00533, DEL746-750)
- Sequence (P00533 other isoform, or with tags, fused parts or gaps del 746-750): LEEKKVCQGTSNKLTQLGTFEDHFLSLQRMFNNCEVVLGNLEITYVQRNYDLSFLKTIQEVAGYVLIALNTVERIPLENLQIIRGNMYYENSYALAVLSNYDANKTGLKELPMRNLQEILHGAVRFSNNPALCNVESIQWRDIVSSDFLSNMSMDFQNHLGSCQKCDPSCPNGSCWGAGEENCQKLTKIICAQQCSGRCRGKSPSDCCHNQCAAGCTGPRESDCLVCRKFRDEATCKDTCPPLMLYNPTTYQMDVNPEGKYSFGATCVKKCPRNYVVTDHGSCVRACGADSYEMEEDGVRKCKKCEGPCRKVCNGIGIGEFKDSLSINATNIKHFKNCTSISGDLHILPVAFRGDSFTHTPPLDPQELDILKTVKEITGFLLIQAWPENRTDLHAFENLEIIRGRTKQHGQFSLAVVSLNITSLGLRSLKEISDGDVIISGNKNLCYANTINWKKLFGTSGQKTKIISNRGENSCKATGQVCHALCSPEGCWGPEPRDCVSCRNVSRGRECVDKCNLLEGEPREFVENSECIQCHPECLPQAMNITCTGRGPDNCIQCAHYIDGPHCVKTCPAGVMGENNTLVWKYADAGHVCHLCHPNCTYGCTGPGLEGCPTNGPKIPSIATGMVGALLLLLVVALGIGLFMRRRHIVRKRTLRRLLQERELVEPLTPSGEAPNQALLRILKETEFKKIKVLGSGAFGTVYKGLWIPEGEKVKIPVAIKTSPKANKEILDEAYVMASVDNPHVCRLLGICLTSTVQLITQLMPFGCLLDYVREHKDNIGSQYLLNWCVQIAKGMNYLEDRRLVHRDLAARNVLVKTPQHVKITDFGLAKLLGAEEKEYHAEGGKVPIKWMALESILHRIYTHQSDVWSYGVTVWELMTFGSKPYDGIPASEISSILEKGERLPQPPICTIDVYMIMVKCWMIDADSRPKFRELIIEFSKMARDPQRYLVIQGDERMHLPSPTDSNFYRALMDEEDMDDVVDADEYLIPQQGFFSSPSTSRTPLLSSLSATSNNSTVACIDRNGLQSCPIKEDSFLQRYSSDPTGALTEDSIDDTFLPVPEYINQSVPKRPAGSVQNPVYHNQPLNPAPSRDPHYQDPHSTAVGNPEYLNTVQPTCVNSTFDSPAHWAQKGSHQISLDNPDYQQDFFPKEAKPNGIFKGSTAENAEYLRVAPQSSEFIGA
- experimental details: PC-9 pEGFR AlphaLISA assay
- cond: 4 hours incubation, p-EGFR (Tyr1068) AlphaLISA, read-out: Ext pEGFR_PC-9 Ex19Del IC50
readout kind: pIC50
Schema: pIC50 number; meaning minus log10 of the concentration expressed in molar units.

Task item: For pEGFR (Tyr1068) in PC-9 cells (Ex19Del) (Homo sapiens (Human), UniProt P00533, DEL746-750), provide pIC50 of COc1cc2ncnc(-c3cn(C)nc3-c3ccccc3F)c2cc1NC(=O)[C@@]12C[C@@H]1CN(C)C2 (single isomer, unassigned) [Example 254] please.
Reply: 8.60

Task item: And the next one, COc1cc2ncnc(-c3c[nH]nc3-c3ccccc3)c2cc1[C@H]1CCCCO1 (single isomer, unassigned) [Example 133] ?
Reply: 8.62

Task item: Similarly, CCn1cc(-c2ncnc3cc(OC)c(N4CCOCC4)cc23)c(-c2ccccc2)n1 [Example 169] ?
Reply: 8.72

Task item: Same question for CCOc1cc2ncnc(-c3cn(CC)nc3-c3ccccc3)c2cc1[C@@H](C)O (single isomer, unassigned) [Example 108] please.
Reply: 8.57

Task item: // repeat for COc1cc2ncnc(-c3cn(C)nc3-c3ccccc3)c2cc1NC(=O)C1(C)COC1 [Example 345] and report
Reply: 8.11

Task item: Query CCOc1cc2ncnc(-c3cn(C)nc3-c3ccccc3)c2cc1N1CC2CC(C1)O2 [Example 167] next
Reply: 8.77

Task item: Same again, this time with CCOc1cc2ncnc(-c3cn(C)nc3-c3ccc(F)cc3)c2nc1NC(=O)[C@]12C[C@H]1CN(C)C2 (single isomer, unassigned) [Example 376]
Reply: 8.57

Task item: How about this compound: CCOc1cc2ncnc(-c3cn(CC(F)F)nc3-c3ccccc3)c2cc1CO [Example 123]
Reply: 8.52

Task item: Then this compound: COc1cc2ncnc(-c3cn(C)nc3-c3ccccc3)c2nc1OC(=O)N1CCN(C)C[C@@H]1C [Example 55]
Reply: 8.44

Task item: Another compound to look at: COc1cc2ncnc(-c3cn(C)nc3-c3ccccc3)c2cc1N1CCC[C@@H](O)C1 [Example 165]
Reply: 7.99

Task item: And what about the compound COc1cc2ncnc(-c3cn(CC(F)F)nc3-c3ccccc3)c2cc1NC(=O)[C@@]12COC[C@@H]1C2 [Example 276] ?
Reply: 8.89

Task item: Follow-up entry: COc1cc2ncnc(-c3cn(C)nc3-c3ccccc3)c2cc1OC(=O)N1CCO[C@H](C)[C@@H]1C [Example 94]
Reply: 7.95

Task item: What about COc1cc2ncnc(-c3cn(C)nc3-c3ccccc3)c2cc1NC(=O)c1sc(C2CC2)nc1C [Example 354] ?
Reply: 9.10

Task item: Also, COc1cc2ncnc(-c3cn(C)nc3-c3ccccc3)c2cc1NC(=O)[C@H]1CCN1C (single isomer, unassigned) [Example 253] please.
Reply: 8.41

Task item: What would you report for CCOc1cc2ncnc(-c3cn(C)nc3-c3ccccc3)c2cc1NC(=O)[C@@]12COC[C@@H]1C2 [Example 290] ?
Reply: 8.82

Task item: Cool, now CCOc1cc2ncnc(-c3cn(C)nc3-c3ccccc3)c2cc1NC(=O)C1CC1 [Example 306]
Reply: 9.22

Task item: Lookup COc1cc2ncnc(-c3cn(C)nc3-c3ccccc3)c2cc1O[C@H]1CCOC[C@@H]1F [Example 17]
Reply: 8.62

Task item: Please do the same for CCOc1cc2ncnc(-c3cn(C)nc3-c3ccccc3)c2cc1NC(=O)[C@]12COC[C@H]1C2 [Example 291] as well.
Reply: 8.77

Task item: Record: COc1cc2ncnc(-c3cn(CC(F)F)nc3-c3ccccc3)c2cc1C1(O)CCOCC1 [Example 127]
Reply: 8.59

Task item: Follow-up entry: COc1cc2ncnc(-c3cn(C)nc3-c3ccccc3)c2cc1NC(=O)c1nc(C)ccc1F [Example 330]
Reply: 9.10

Task item: Query COc1cc2ncnc(-c3cn(C)nc3-c3ccccc3)c2cc1N1CC[C@@H](F)[C@H](O)C1 (single isomer, unassigned) [Example 173] next
Reply: 7.86

Task item: And then COc1cc2ncnc(-c3cn(CC4CC4)nc3-c3ccccc3)c2nc1NC(=O)[C@@]12C[C@@H]1CN(C)C2 (single isomer, unassigned) [Example 408] , what is it?
Reply: 9.15

Task item: How about this compound: COc1cc2ncnc(-c3cn(C)nc3-c3ccccc3)c2nc1NC(=O)C1CC1 [Example 355]
Reply: 9.10

Task item: Input CCOc1cc2ncnc(-c3cn(C)nc3-c3ccccc3)c2nc1NC(=O)C12CC(C1)C2 [Example 311]
Reply: 8.68

Task item: What about Cn1cc(-c2ncnc3cc(C(F)(F)F)c(NC(=O)C45COCC4C5)nc23)c(-c2ccccc2)n1 (centres unmarked) [Example 488] ?
Reply: 6.01

Task item: Likewise for COc1cc2ncnc(-c3cn(CC(F)F)nc3-c3ccccc3)c2nc1NC(=O)[C@H]1CCN1C [Example 391] ?
Reply: 9.15

Task item: What about this compound? COc1cc2ncnc(-c3cn(C)nc3-c3ccccc3)c2cc1O[C@H]1CCN(C)C[C@@H]1F [Example 2]
Reply: 8.31

Task item: Can you check CCOc1cc2ncnc(-c3cn(C)nc3-c3ccccc3)c2nc1NC(=O)C12CC(N(C)C)(C1)C2 [Example 420] next?
Reply: 8.23

Task item: Now this one: COc1cc2ncnc(-c3cn(C)nc3-c3ccccc3)c2cc1OC(=O)N1CCOCC1(C)C [Example 81]
Reply: 8.28
